# Tested on: HCT-15 colon
# Test: NCI tumour cell line growth inhibition, 48 h

# Molecule, TGI
records = [
    ("COc1cc(CCc2ccc(N)cc2)cc(OC)c1OC", "> 100 µM"),
    ("CC[C@H](C)[C@H](NC(=O)[C@H]1CCCCN1C)C(=O)N(C)[C@H](C[C@@H](OC(C)=O)c1nc(C(=O)N[C@@H](Cc2ccccc2)C[C@H](C)C(=O)O)cs1)C(C)C", "> 16.5 µM"),
    ("c1cc2c(cn1)Nc1ccncc1S2", "> 100 µM"),
    ("O=C1/C=C/[C@@H](O)[C@@H]2C[C@@H](O)C[C@H]2/C=C/CCC[C@H](C(F)(F)F)O1", "6.98 µM"),
    ("Nc1c(Cl)ncnc1NCCCNc1ncnc(Cl)c1N", "> 100 µM"),
    ("C=CCOCn1cc(C)c(=O)[nH]c1=O", "> 100 µM"),
    ("O=C(Nc1nc2c(ncn2C2OC(CO)C(O)C2O)c(=O)[nH]1)c1ccccc1 (stereo not given)", "> 100 µM"),
    ("CN(C)CCNC(=O)c1cccc2c1Oc1c(cccc1[N+](=O)[O-])O2", "3.89 µM"),
    ("CCOC(=O)C1=COC(C)(CCc2ccccc2)CC1=O (stereo not given)", "> 100 µM"),
    ("CCN(CC)c1ccc2cc(C(=O)Nc3ccccn3)c(=N)oc2c1", "> 100 µM"),
]
